Tgt: EGFR Del-19 (Homo sapiens)
Construct: as for the T790M/L858R enzyme of the same protocol
Sequence (P00533 with tags, fused parts or gaps DEL746-750): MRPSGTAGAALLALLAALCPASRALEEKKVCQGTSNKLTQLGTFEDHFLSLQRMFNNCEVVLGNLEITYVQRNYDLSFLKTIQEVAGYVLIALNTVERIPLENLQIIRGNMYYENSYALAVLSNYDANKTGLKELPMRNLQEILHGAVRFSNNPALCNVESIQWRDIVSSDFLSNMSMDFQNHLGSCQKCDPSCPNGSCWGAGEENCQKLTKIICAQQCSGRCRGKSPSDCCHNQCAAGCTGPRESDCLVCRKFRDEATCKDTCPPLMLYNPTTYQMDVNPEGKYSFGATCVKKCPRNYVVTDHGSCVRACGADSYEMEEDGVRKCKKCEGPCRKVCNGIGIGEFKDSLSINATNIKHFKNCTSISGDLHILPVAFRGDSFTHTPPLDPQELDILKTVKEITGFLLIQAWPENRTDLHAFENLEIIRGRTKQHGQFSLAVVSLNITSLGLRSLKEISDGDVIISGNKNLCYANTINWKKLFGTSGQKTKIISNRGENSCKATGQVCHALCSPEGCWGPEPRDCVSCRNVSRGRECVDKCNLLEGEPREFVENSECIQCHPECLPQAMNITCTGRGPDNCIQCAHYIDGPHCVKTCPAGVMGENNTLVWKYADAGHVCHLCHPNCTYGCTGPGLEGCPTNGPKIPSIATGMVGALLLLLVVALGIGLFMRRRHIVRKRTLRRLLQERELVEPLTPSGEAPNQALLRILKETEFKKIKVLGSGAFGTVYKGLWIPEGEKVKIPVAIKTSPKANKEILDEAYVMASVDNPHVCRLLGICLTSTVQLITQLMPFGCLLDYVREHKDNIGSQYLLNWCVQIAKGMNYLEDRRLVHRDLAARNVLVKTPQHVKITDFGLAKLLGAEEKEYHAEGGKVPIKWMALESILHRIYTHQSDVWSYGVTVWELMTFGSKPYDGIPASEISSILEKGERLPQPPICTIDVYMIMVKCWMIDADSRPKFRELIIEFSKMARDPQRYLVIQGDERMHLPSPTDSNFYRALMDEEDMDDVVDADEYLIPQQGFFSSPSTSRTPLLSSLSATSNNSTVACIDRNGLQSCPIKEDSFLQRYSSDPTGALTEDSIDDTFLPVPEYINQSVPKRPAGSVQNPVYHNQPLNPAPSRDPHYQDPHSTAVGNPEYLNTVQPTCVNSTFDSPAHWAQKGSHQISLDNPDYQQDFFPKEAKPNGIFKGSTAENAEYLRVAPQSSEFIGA
Measurement notes: EGFR biochemical enzyme assay, Del-19
Consider the following compounds and their measured IC50 readings.

# example entries with known answers
C=CC(=O)Nc1cc(Nc2ncc(C#N)c(-c3cn(C45CC(C4)C5)c4ccccc34)n2)c(OC)cc1N(C)CCN(C)C | ≤ 10 nM
C=CC(=O)Nc1cc(Nc2nccc(-c3cn(C)c4ccccc34)n2)c(OC)cc1N(C)C12CC(CN(C)C)(C1)C2 | ≥ 100 nM
C=CC(=O)Nc1cc(Nc2nccc(-c3cn(C)c4ccccc34)n2)c(OC)cc1N(C)C12CC(N(C)C)(C1)C2 | ≥ 100 nM

Could you now consider this next compound?
Lab note: compound C=CC(=O)Nc1cc(Nc2nccc(-c3cn(C45CC(C4)C5)c4ccccc34)n2)c(OC)cc1N(C)CCN(C)C tested on EGFR Del-19 (Homo sapiens); recorded IC50 was ≤ 10 nM
